# System: HEK-293T
# assay.details: Multiplex assay against HEK293T
# Assay type: toxicity, cell-based
# condition.label: human, 24 h, 10 µM, compound concentration 10 uM, replicate 2
Reported Population Mitotic Cells (%) values for the following molecules.
Use % as the unit, but write only the number.

IN: Form field: Population Mitotic Cells (%) recorded for "CN1CCN(c2cc(-c3ccccc3)nc(N)n2)CC1" with HEK-293T (enter value)
OUT: 65

IN: Form field: Population Mitotic Cells (%) recorded for "CCCCC1=NC2(CCCC2)C(=O)N1Cc1ccc(-c2ccccc2-c2nnn[nH]2)cc1" with HEK-293T (enter value)
OUT: 58

IN: Form field: Population Mitotic Cells (%) recorded for "COc1ccccc1N1CCN(C[C@@H](C(=O)NC(C)(C)C)c2ccccc2)CC1.Cl.Cl" with HEK-293T (enter value)
OUT: 33

IN: Form field: Population Mitotic Cells (%) recorded for CCCCCC(O)/C=C/[C@H]1C(=O)CC(O)C1C/C=C\CCCC(=O)O (stereo not given in full) with HEK-293T (enter value)
OUT: 55

IN: Form field: Population Mitotic Cells (%) recorded for "CCCOc1ccc2[nH]cc(C3=CCNCC3)c2n1.Cl" with HEK-293T (enter value)
OUT: 48

----------
# Tested on: Fibroblast
# assay.details: Multiplex assay against human fibroblast
# Format: toxicity, cell-based
# condition.label: 48 h, 1 µM, compound concentration 1 uM, replicate 1
Entry flag: satisfied if Population Pyknosed Nuclei (%) reaches 10%; not satisfied if it does not.

These solved cases illustrate the format of a correct answer.
{"molecule": "Cc1sc2c(c1C)C(c1ccc(Cl)cc1)=N[C@@H](CC(=O)NCCCCCCCCNC(=O)COc1cccc3c1C(=O)N(C1CCC(=O)NC1=O)C3=O)c1nnc(C)n1-2 (some centres undefined)", "subject.of.test": "Fibroblast", "group": "satisfied"}
{"molecule": "CCCOc1ccc2[nH]cc(C3=CCNCC3)c2n1.Cl", "subject.of.test": "Fibroblast", "group": "not satisfied"}
{"molecule": "CC(C)(C)c1cc(NC(=O)Nc2ccc(-c3cn4c(n3)sc3cc(OCCN5CCOCC5)ccc34)cc2)no1", "subject.of.test": "Fibroblast", "group": "not satisfied"}
{"molecule": "O=C(CCCc1ccccc1)Nc1nc2ccccc2c(=O)s1", "subject.of.test": "Fibroblast", "group": "satisfied"}
{"molecule": "N#Cc1c(Oc2cccc(OS(=O)(=O)CCCC(F)(F)F)c2)cccc1C(F)(F)F", "subject.of.test": "Fibroblast", "group": "satisfied"}

IN: Hi team, for "Cc1cnc(-c2cc(N3CCN(C(=O)CCS(C)(=O)=O)CC3)ncc2Cl)c(C)c1" , is the recorded Population Pyknosed Nuclei (%) at or above 10%?
OUT: satisfied

IN: Hi team, for "CN[C@@H](C)C(=O)N[C@H](C(=O)N1CCC[C@H]1C(=O)Nc1snnc1-c1ccccc1)C1CCCCC1" , is the recorded Population Pyknosed Nuclei (%) at or above 10%?
OUT: satisfied

IN: Hi team, for "Cc1cccc(NC(=O)CN2CCC(c3ccccn3)CC2)c1.Cl.Cl" , is the recorded Population Pyknosed Nuclei (%) at or above 10%?
OUT: satisfied

IN: Hi team, for "CN1CCN(c2cc(-c3ccccc3)nc(N)n2)CC1" , is the recorded Population Pyknosed Nuclei (%) at or above 10%?
OUT: satisfied

IN: Hi team, for Cl.N=C(N)NC(=O)Cc1c(Cl)cccc1Cl [GUANFACINE HYDROCHLORIDE] , is the recorded Population Pyknosed Nuclei (%) at or above 10%?
OUT: satisfied

----------
# Tested on: HEK-293T
# assay.details: Multiplex assay against HEK293T
# Assay type: toxicity, cell-based
# condition.label: human, 24 h, 1 µM, compound concentration 1 uM, replicate 1
Reported Population Healthy Nuclei (%) values for the following compounds.
Use % as the unit, but write only the number.

{"compound": "CC(C)c1noc(N2CCC(COc3ccc(-c4ccc(S(C)(=O)=O)cc4)nc3)CC2)n1", "subject.of.test": "HEK-293T", "units.symbol": "%", "Population Healthy Nuclei (%)": 78}
{"compound": "Cl.NCCc1ccc(O)c(O)c1 [DOPAMINE HYDROCHLORIDE]", "subject.of.test": "HEK-293T", "units.symbol": "%", "Population Healthy Nuclei (%)": 76}
{"compound": "COc1ccccc1N1CCN(C[C@@H](C(=O)NC(C)(C)C)c2ccccc2)CC1.Cl.Cl", "subject.of.test": "HEK-293T", "units.symbol": "%", "Population Healthy Nuclei (%)": 81}
{"compound": "N#Cc1c(Oc2cccc(OS(=O)(=O)CCCC(F)(F)F)c2)cccc1C(F)(F)F", "subject.of.test": "HEK-293T", "units.symbol": "%", "Population Healthy Nuclei (%)": 77}
{"compound": "Cc1sc2c(c1C)C(c1ccc(Cl)cc1)=N[C@@H](CC(=O)NCCCCCCCCNC(=O)COc1cccc3c1C(=O)N(C1CCC(=O)NC1=O)C3=O)c1nnc(C)n1-2 (some centres undefined)", "subject.of.test": "HEK-293T", "units.symbol": "%", "Population Healthy Nuclei (%)": 61}

Note: attention shifts to another entry.
IN: Dear colleague, I am looking for the recorded Population Healthy Nuclei (%) of the following compound: "C[C@H](N)COC(=O)[C@@H](CCCCN)NC(=O)Cc1c(-c2ccc3ccccc3c2)[nH]c2c1ccc1ccccc12"
OUT: 77

----------
# System: Fibroblast
# assay.details: Multiplex assay against human fibroblast
# Format: toxicity, cell-based
# condition.label: 24 h, 10 µM, compound concentration 10 uM, replicate 1
Entry flag: Yes if Population Mitochondria Different-Phenotype (%) reaches 7%; No if it does not.

These solved cases illustrate the format of a correct answer.
{"molecule": "Cc1onc(-c2ccccc2Cl)c1C(=O)N(C)c1ccc(Cl)cc1", "group": "No"}
{"molecule": "Cc1cccc(NC(=O)CN2CCC(c3ccccn3)CC2)c1.Cl.Cl", "group": "Yes"}
{"molecule": "C[C@H](N)COC(=O)[C@@H](CCCCN)NC(=O)Cc1c(-c2ccc3ccccc3c2)[nH]c2c1ccc1ccccc12", "group": "No"}
{"molecule": "Cc1sc2c(c1C)C(c1ccc(Cl)cc1)=N[C@@H](CC(=O)NCCCCCCCCNC(=O)COc1cccc3c1C(=O)N(C1CCC(=O)NC1=O)C3=O)c1nnc(C)n1-2 (stereo partly drawn)", "group": "Yes"}
{"molecule": "NCCc1cn(S(=O)(=O)c2c(Cl)nc3sccn23)c2ccccc12.O=C(O)C(=O)O", "group": "Yes"}

IN: Hi team, for CC(=O)Nc1cccc2c1c(Sc1ccc(Cl)cc1)c(C)n2CC(=O)O [AZD1981] , is the recorded Population Mitochondria Different-Phenotype (%) at or above 7%?
OUT: No

IN: Hi team, for CN[C@@H](C)C(=O)N[C@H](C(=O)N1CCC[C@H]1C(=O)Nc1snnc1-c1ccccc1)C1CCCCC1 [GDC-0152] , is the recorded Population Mitochondria Different-Phenotype (%) at or above 7%?
OUT: Yes

IN: Hi team, for CC(C)c1noc(N2CCC(COc3ccc(-c4ccc(S(C)(=O)=O)cc4)nc3)CC2)n1 [GSK-1292263] , is the recorded Population Mitochondria Different-Phenotype (%) at or above 7%?
OUT: No

IN: Hi team, for "CCCCC(=O)N(Cc1ccc(-c2ccccc2-c2nnn[nH]2)cc1)[C@H](C(=O)O)C(C)C" , is the recorded Population Mitochondria Different-Phenotype (%) at or above 7%?
OUT: No

IN: Hi team, for Cl.NCCc1ccc(O)c(O)c1 [DOPAMINE HYDROCHLORIDE] , is the recorded Population Mitochondria Different-Phenotype (%) at or above 7%?
OUT: No

----------
Reported Population Fragmented Nuclei (%) values for the following compounds.
# Tested on: Fibroblast
# assay.details: Multiplex assay against human fibroblast
# Type: toxicity, cell-based
# condition.label: 24 h, 1 µM, compound concentration 1 uM, replicate 1
Use % as the unit, but write only the number.

{"compound": "C[C@H](N)COC(=O)[C@@H](CCCCN)NC(=O)Cc1c(-c2ccc3ccccc3c2)[nH]c2c1ccc1ccccc12", "subject.of.test": "Fibroblast", "units.symbol": "%", "assay.value": 16}
{"compound": "CC(C)(C)c1cc(NC(=O)Nc2ccc(-c3cn4c(n3)sc3cc(OCCN5CCOCC5)ccc34)cc2)no1 [QUIZARTINIB]", "subject.of.test": "Fibroblast", "units.symbol": "%", "assay.value": 14}
{"compound": "CN[C@@H](C)C(=O)N[C@H](C(=O)N1CCC[C@H]1C(=O)Nc1snnc1-c1ccccc1)C1CCCCC1 [GDC-0152]", "subject.of.test": "Fibroblast", "units.symbol": "%", "assay.value": 20}

IN: Form field: Population Fragmented Nuclei (%) recorded for "CN1CCN(c2cc(-c3ccccc3)nc(N)n2)CC1" with Fibroblast (enter value)
OUT: 17

IN: Form field: Population Fragmented Nuclei (%) recorded for Cl.N=C(N)NC(=O)Cc1c(Cl)cccc1Cl [GUANFACINE HYDROCHLORIDE] with Fibroblast (enter value)
OUT: 22

IN: Form field: Population Fragmented Nuclei (%) recorded for Cc1sc2c(c1C)C(c1ccc(Cl)cc1)=N[C@@H](CC(=O)NCCCCCCCCNC(=O)COc1cccc3c1C(=O)N(C1CCC(=O)NC1=O)C3=O)c1nnc(C)n1-2 (stereo partly drawn) with Fibroblast (enter value)
OUT: 20

IN: Form field: Population Fragmented Nuclei (%) recorded for Cc1c(CC(=O)O)c2cccnc2n1Cc1ccc(S(C)(=O)=O)cc1C(F)(F)F [FEVIPIPRANT] with Fibroblast (enter value)
OUT: 14

IN: Form field: Population Fragmented Nuclei (%) recorded for "CCc1cc2cc(NS(=O)(=O)c3ccc(C#N)cc3)ccc2n(CC)c1=O" with Fibroblast (enter value)
OUT: 19
